Catalogue of compounds with associated EC50
Biological target: mutant CFTR (Homo sapiens, UniProt P13569, DEL508-508)
Construct: expressed in transfected cells
Sequence (P13569 with tags, fused parts or gaps DEL508-508): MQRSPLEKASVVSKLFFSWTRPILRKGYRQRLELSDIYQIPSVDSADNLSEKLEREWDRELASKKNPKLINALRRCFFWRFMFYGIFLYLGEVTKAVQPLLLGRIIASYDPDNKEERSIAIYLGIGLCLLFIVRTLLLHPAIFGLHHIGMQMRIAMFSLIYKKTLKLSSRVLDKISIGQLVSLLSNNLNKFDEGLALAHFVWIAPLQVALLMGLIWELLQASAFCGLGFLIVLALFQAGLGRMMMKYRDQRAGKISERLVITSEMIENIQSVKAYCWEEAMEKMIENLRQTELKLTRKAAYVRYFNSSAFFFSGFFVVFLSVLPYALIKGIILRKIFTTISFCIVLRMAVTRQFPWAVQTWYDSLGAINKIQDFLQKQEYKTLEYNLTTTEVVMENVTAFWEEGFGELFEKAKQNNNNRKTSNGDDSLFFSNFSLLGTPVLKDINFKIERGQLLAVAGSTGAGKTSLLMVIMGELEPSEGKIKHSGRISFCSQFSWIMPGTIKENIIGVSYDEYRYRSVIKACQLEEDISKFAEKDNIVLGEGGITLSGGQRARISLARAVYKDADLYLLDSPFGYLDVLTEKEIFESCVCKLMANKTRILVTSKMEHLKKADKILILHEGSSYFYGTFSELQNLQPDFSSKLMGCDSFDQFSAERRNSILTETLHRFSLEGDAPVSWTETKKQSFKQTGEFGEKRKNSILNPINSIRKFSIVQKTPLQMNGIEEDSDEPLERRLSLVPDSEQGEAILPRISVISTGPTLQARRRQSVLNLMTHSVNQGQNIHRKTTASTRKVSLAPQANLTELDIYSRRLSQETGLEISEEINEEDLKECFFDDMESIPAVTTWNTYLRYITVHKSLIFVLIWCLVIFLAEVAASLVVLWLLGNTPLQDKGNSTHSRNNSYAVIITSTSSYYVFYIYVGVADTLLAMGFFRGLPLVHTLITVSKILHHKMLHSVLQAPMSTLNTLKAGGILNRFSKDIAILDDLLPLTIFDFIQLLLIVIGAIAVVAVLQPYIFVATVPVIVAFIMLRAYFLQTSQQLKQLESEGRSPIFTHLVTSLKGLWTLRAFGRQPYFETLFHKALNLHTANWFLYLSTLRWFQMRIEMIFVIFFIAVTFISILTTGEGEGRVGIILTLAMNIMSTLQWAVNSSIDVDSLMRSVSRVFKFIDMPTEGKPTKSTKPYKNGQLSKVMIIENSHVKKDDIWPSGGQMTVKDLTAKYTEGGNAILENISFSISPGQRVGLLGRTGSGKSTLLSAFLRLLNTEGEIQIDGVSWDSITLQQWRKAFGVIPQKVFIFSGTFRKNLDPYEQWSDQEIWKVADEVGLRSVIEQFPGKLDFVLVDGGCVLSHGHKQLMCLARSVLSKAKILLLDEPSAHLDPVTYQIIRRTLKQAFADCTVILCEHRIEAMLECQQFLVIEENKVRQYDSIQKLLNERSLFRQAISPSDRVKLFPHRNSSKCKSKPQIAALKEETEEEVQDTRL
Assay: Fluorescence (HS-YFP) assay for CFTR activity, corrector assay
Type: cell-based
Settings: CFBE41o- and FRT cells with stable expression of mutant CFTR, read-out: activity (EC50)
Where a name gives a salt, the structure may show the parent alone.

compound	EC50
CN(C(=O)c1cccc(-n2nc(C(F)(F)F)c3c2C(Oc2ccc(C(=O)O)cc2)CCC3)c1)c1cncc(F)c1 (racemic)	> 2000 nM
CN(C(=O)c1cccc(-n2nc(C(F)(F)F)c3c2CCN(C[C@@H]2COC(C)(C)O2)C3)c1)c1ccc2c(c1)OCO2	< 1000 nM
CN(C(=O)c1cccc(-n2nc(C(F)(F)F)c3c2CC2CCC3N2)c1)c1ccc2c(c1)OCO2 (racemic) [Compound 022, hydrochloride]	< 1000 nM
